// reported EC50 per item
tested on: HCV replicon; assay: HCV replicon luciferase assay; type: cell-based, Hepatitis C virus; conditions: Hepatitis C virus, cells marked **: Luciferase assay; read-out: EC50
PROPERTY LABEL: EC50

COMPOUND: CC(C)(C)OC(=O)/C=C/c1ccc(NC(=O)C2(NC(=O)c3ccc4c(C5CCCCC5)c5n(c4c3)CC(=O)N5Cc3ccccc3)CCCC2)cc1
ENDPOINT RESULT: > 10000 nM
//
COMPOUND: O=C1Cn2c(c(C3CCCCC3)c3ccc(C(=O)O)cc32)N1
ENDPOINT RESULT: > 10000 nM
//
COMPOUND: O=C(O)c1ccc2c(C3CCCCC3)c3n(c2c1)CC(=O)N3Cc1ccccc1
ENDPOINT RESULT: > 10000 nM
//
COMPOUND: COC(=O)c1ccc2c(C3CCCCC3)c3n(c2c1)CC(=O)N3Cc1ccccc1
ENDPOINT RESULT: 1000 to 10000 nM
//
COMPOUND: O=C(O)c1ccc2c(C3CCCCC3)c3n(c2c1)CCCn1ccnc1-3
ENDPOINT RESULT: > 10000 nM
//
COMPOUND: CCOC(=O)c1cc2ccccc2c2c(C3CCCCC3)c3ccc(C(=O)OC)cc3n12 [drawing 141]
ENDPOINT RESULT: > 10000 nM
//
COMPOUND: CCOC(=O)/C=C/c1ccc(NC(=O)C2(NC(=O)c3ccc4c(C5CCCCC5)c5n(c4c3)C(OC)c3ccccc3-5)CCCC2)cc1 (stereo not shown)
ENDPOINT RESULT: 1000 to 10000 nM
//
COMPOUND: O=C(O)/C=C/c1ccc(NC(=O)C2(NC(=O)c3ccc4c(C5CCCCC5)c5n(c4c3)CCCc3ccccc3-5)CCCC2)cc1
ENDPOINT RESULT: 10 to 1000 nM
//
COMPOUND: O=C(O)c1ccc2c(C3CCCCC3)c3n(c2c1)CC/C=C\Nc1ccccc1-3
ENDPOINT RESULT: 1000 to 10000 nM
//
COMPOUND: COC(=O)c1ccc2c(C3CCCCC3)c3n(c2c1)CC(NC(=O)N1CCOCC1)Cc1ccccc1-3 (stereo not shown)
ENDPOINT RESULT: 1000 to 10000 nM
//
COMPOUND: O=C(O)c1ccc2c(C3CCCCC3)c3n(c2c1)CC(C(=O)O)Cc1ccccc1-3 (stereo not shown) [drawing 147]
ENDPOINT RESULT: > 10000 nM
//
COMPOUND: O=C(O)c1ccc2c(C3CCCCC3)c3n(c2c1)CCOc1ccccc1-3
ENDPOINT RESULT: 10 to 1000 nM
//
COMPOUND: Cn1c(-c2ccccc2)c(C2CCCCC2)c2ccc(C(=O)NC3(c4nnnn4CC(=O)O)CCCC3)cc21
ENDPOINT RESULT: > 10000 nM
//
COMPOUND: CCOC(=O)/C=C/c1ccc(NC(=O)C2(N(C)C(=O)c3ccc4c(C5CCCCC5)c5n(c4c3)CCCc3ccccc3-5)CCCC2)cc1
ENDPOINT RESULT: 1000 to 10000 nM
//
COMPOUND: COC1c2ccccc2-c2c(C3CCCCC3)c3ccc(C(=O)NC4(C(=O)Nc5ccc(/C=C/C(=O)O)cc5)CCCC4)cc3n21 (stereo not shown)
ENDPOINT RESULT: 10 to 1000 nM
//
COMPOUND: COC(=O)c1ccc2c(C3CCCCC3)c3n(c2c1)CC(=O)N3
ENDPOINT RESULT: 1000 to 10000 nM
//
COMPOUND: O=C(O)/C=C/c1ccc(NC(=O)C2(NC(=O)c3ccc4c(C5CCCCC5)c5n(c4c3)C/C=C\CNc3ccccc3-5)CCCC2)cc1
ENDPOINT RESULT: 10 to 1000 nM
//
COMPOUND: CCNC(=O)N(CCCN(C)C)C(=O)c1ccc2c(C3CCCCC3)c3n(c2c1)CCCc1ccccc1-3
ENDPOINT RESULT: 1000 to 10000 nM
//
COMPOUND: O=C(O)c1ccc2c(C3CCCCC3)c3n(c2c1)CC(=O)N3c1ccccc1
ENDPOINT RESULT: > 10000 nM
//
COMPOUND: COC(=O)c1ccc2c(C3CCCCC3)c3n(c2c1)CC(=O)N3c1ccccc1
ENDPOINT RESULT: > 10000 nM
//
COMPOUND: O=C(O)/C=C/c1ccc(NC(=O)C2(NC(=O)c3ccc4c(C5CCCCC5)c5n(c4c3)CCCn3ccnc3-5)CCCC2)cc1
ENDPOINT RESULT: 1000 to 10000 nM
//
COMPOUND: CCOC(=O)/C=C/c1ccc(NC(=O)C2(NC(=O)c3ccc4c(C5CCCCC5)c5n(c4c3)CC(=O)Nc3ccccc3-5)CCCC2)cc1
ENDPOINT RESULT: 10 to 1000 nM

Reference for the values: patent US7348425B2
